Reference for the values: patent US20180230200A1

Molecular target: T1, gH/gL/UL128/UL130/UL131A pentamer complex expressed from MVA-PC in BHK-21 cells (human cytomegalovirus, UniProt P12824 24-743; P16832 31-278; P16837 28-171; P16772 1-214; F5HET4 19-129)
T1 construct: whole, on cells
Test: FC, biotinylated NAb titrated on MVA-PC-infected BHK-21 (cell surface PC)
// reported EC50 per item
endpoint: EC50 (nM)

[[record]]
binder = "62-11 (antibody, V domains shown, also called NAb 62-11) VH: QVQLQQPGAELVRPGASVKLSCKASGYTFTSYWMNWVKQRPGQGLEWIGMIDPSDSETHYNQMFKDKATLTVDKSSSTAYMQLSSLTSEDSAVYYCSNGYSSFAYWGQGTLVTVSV VL: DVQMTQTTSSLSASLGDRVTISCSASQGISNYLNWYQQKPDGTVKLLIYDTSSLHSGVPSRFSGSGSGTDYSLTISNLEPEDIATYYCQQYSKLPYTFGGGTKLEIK"
endpoint = "EC50"
obs_value = 1.7

[[record]]
binder = "54E11 (antibody, V domains shown, also called NAb 54E11) VH: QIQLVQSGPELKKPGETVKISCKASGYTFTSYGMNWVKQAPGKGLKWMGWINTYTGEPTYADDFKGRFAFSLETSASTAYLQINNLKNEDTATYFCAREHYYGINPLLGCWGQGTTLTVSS VL: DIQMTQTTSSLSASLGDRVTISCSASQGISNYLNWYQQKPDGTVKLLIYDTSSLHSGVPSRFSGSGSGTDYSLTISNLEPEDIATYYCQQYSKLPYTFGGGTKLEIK"
endpoint = "EC50"
obs_value = 0.51

[[record]]
binder = "21E9 (antibody, V domains shown, also called NAb 21E9) VH: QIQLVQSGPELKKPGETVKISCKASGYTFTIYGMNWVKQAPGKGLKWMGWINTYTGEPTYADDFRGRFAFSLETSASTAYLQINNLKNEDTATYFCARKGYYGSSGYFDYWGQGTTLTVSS VL: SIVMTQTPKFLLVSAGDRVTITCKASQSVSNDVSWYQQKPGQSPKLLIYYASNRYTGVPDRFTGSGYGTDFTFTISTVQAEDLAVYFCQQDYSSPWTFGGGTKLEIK"
endpoint = "EC50"
obs_value = 18

